# System: Escherichia coli TOP10;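 also: peptides expressed intracellularly from a pBAD plasmid library in pooled LB shake-flask culture, induced with 0.3% L-arabinose, DNA abundance read by NGS, three biological replicates, DESeq2 with apeglm shrinkage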
# Method: shrunken log2 fold change of peptide-encoding DNA abundance (4.5 h post-induction vs induction); higher = less antimicrobial activity (less host growth inhibition)
# Condition: time post-induction: 4.5 h; library: site-saturation at positions 5, 18, 19, 20
This listing pairs sequences with measured shrunken log2 fold change.
Could you keep your reply to the number by itself?

[in] I would be grateful if you could share the reported shrunken log2 fold change for `RRIRNRPPRLPRPRPRPSWQPRP` .
[out] -0.0148

[in] Subsequent entry: `RRIRCRPPRLPRPRPRPDCAPRP`
[out] 0.515

[in] Subsequent entry: `RRIRERPPRLPRPRPRPIRSPRP`
[out] -0.112

[in] Subsequent entry: `RRIRSRPPRLPRPRPRPAEEPRP`
[out] 0.164

[in] Subsequent entry: `RRIRMRPPRLPRPRPRPCVLPRP`
[out] -2.47e-05

[in] Subsequent entry: `RRIRSRPPRLPRPRPRPTCDPRP`
[out] 0.109

[in] Subsequent entry: `RRIRVRPPRLPRPRPRPYIAPRP`
[out] -0.608
